Tested on: erythrocytes
Experiment: Hemolysis assay (Example 11)
Type: cell-based
Set-up: dose or concentration left out as unconfirmed
Settings: 1 h
Where no end group is shown, it is not given here.
Mark YES for reported % Hemolysis Mean of 3% or greater; mark NO for anything smaller.

Ac-CNYITELLRQLARASKKGLA-NH2 [Peptide 180]	YES

Is % Hemolysis Mean for CNYIEELLRQKARALHKGLA [Peptide 162] at or above 3%?
NO

Threshold query (% Hemolysis Mean >= 3%) on CNYIEELLRQRARALKKGLA [Peptide 168]
NO

Is it the case that CNYITELLRQLARANKKGLA [Peptide 154] has % Hemolysis Mean reaching or exceeding 3%?
NO

// inclusive: % Hemolysis Mean at least 3%? input: CNYITELLRQLARATHKGLA [Peptide 150]
YES

Does the substance CNYIEELLRQKARALKKGLA [Peptide 164] have recorded % Hemolysis Mean that is 3% or more?
NO

Can CNYIEELRRQLARAWHKGLA [Peptide 174] be said to have % Hemolysis Mean at or above 3%?
NO

Answer whether % Hemolysis Mean of CNYITELLRQKARALKKGLA [Peptide 163] is greater than or equal to 3%.
NO

Answer whether % Hemolysis Mean of CNYITELRRQLARALKKGLA [Peptide 141] is greater than or equal to 3%.
YES

Answer whether % Hemolysis Mean of CNYITELRRQKLRLLKKGLA [Peptide 169] is greater than or equal to 3%.
NO

Would you say CNYITELLRQRARALKKGLA [Peptide 167] shows % Hemolysis Mean at minimum 3%?
NO

Say whether CNYITELLRQLARARHKGLA [Peptide 156] shows % Hemolysis Mean of 3% or more.
YES

Say whether CNYIEELRRQLARALHKGLA [Peptide 47] shows % Hemolysis Mean of 3% or more.
NO

Check if % Hemolysis Mean >= 3% (inclusive). Item: CNYIKELLRQKLRASHLGLA [Peptide 171]
NO

% Hemolysis Mean >= 3% for CNYIEELRRQLARALKKGLA [Peptide 142] ?
YES

Is % Hemolysis Mean for CNYITELKRQLARALKKGLA [Peptide 144] at or above 3%?
YES

State whether the measured % Hemolysis Mean reaches 3%, counting equality as reaching it, for CNYIEELLRQLARATKKGLA [Peptide 153]
NO

Please check the record CNYIEELLRQRARALHKGLA [Peptide 166] and state if its % Hemolysis Mean is at or above 3%.
NO

Hello, I need to know if CNYITELLRQRARALHKGLA [Peptide 165] has measured % Hemolysis Mean not below 3%. Thanks!
NO

Data origin: patent US20080069849A1
